biological target: His-hSHIP1 enzyme (Homo sapiens); construct: His; experiment: His-hSHIP1 activity, approach 1 (phosphate release from IP4, Biomol Green); type: biochemical; conditions: activation of His-hSHIP1; IP4 50 μM; test compound 0-300 μM; no asterisk in Table 2
Sequence (Q92835 whole entry): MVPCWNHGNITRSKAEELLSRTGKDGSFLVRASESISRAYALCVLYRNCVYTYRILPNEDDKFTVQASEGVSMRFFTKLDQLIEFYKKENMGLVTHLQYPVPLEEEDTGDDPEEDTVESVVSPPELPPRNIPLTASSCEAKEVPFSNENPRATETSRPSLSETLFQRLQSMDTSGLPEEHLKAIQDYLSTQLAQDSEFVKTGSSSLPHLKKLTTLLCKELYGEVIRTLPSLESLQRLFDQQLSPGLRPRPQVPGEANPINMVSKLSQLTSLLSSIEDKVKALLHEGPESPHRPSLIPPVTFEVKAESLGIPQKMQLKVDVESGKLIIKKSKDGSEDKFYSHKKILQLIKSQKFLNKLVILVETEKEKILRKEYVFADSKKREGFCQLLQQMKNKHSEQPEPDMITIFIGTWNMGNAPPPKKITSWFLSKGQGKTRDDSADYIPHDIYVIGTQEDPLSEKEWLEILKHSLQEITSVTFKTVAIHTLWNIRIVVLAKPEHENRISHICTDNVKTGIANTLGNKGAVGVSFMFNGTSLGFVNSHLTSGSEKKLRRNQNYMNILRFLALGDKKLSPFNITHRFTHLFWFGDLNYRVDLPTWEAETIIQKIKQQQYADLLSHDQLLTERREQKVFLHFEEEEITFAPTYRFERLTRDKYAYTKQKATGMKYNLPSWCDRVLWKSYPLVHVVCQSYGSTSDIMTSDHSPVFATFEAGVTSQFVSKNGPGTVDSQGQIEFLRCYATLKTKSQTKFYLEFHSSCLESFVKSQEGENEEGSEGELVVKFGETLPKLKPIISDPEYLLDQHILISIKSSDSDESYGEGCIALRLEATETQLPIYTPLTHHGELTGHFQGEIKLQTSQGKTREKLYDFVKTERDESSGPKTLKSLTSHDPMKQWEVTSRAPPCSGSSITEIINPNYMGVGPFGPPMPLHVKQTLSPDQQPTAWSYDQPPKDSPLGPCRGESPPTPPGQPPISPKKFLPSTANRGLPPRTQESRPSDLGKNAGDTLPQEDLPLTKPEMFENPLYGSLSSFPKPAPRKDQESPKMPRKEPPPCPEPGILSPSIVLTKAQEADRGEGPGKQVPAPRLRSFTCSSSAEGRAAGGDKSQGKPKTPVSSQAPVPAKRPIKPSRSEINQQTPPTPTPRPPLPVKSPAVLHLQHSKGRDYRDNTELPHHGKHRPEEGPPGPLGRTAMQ
experimentalEndpoint: Scoring, Approach 1 (% increase relative to background)

Observe how each entry below is paired with its result.
Look up Scoring, Approach 1 (% increase relative to background) of CC1=CC[C@H]2C(C)(C)CCC[C@]2(C)C1C(=O)c1cc(C)cc(O)c1 (some centres unmarked) and report it.
++ (50 ≤ x < 65)

Look up Scoring, Approach 1 (% increase relative to background) of COc1cc(OC)cc(C(=O)[C@@H]2[C@@]3(C)CCCC(C)(C)[C@@H]3CC[C@@]2(C)O)c1 and report it.
++ (50 ≤ x < 65)

Look up Scoring, Approach 1 (% increase relative to background) of C[C@H]1CC[C@H]2C(C)(C)CCC[C@]2(C)[C@H]1CC(=O)c1cc(O)cc(O)c1 and report it.
+++ (x ≥65)

Look up Scoring, Approach 1 (% increase relative to background) of COc1cc(OC)cc(C(=O)[C@H]2[C@@H](C)C(=O)C[C@H]3C(C)(C)CCC[C@]23C)c1 and report it.
++ (50 ≤ x < 65)

Look up Scoring, Approach 1 (% increase relative to background) of Cc1cc(O)cc(C[C@H]2[C@@H](CO)CC[C@H]3C(C)(C)CCC[C@]23C)c1 and report it.
++ (50 ≤ x < 65)

More entries:
Look up Scoring, Approach 1 (% increase relative to background) of COc1cc(OC)cc(C(=O)C[C@@H]2[C@@]3(C)CCCC(C)(C)[C@@H]3CC[C@@]2(C)O)c1 and report it.
++ (50 ≤ x < 65)

Look up Scoring, Approach 1 (% increase relative to background) of COc1cc(O)cc(C(=O)C[C@H]2[C@@H](C)CC[C@H]3C(C)(C)CCC[C@]23C)c1 and report it.
++ (50 ≤ x < 65)

Look up Scoring, Approach 1 (% increase relative to background) of COc1cc(C)cc(OC[C@H]2C(C)C(O)C[C@H]3C(C)(C)CCC[C@]23C)c1 (some centres unmarked) and report it.
+ (0 < x < 50)

Look up Scoring, Approach 1 (% increase relative to background) of C[C@H]1CC[C@H]2C(C)(C)CCC[C@]2(C)[C@H]1CC(O)c1cc(O)cc(O)c1 (some centres unmarked) and report it.
+++ (x ≥65)

Look up Scoring, Approach 1 (% increase relative to background) of CC1=CC[C@H]2C(C)(C)CCC[C@]2(C)[C@H]1COc1cc(C)cc(O)c1 and report it.
+++ (x ≥65)

Look up Scoring, Approach 1 (% increase relative to background) of COc1cc(OC)cc(C(=O)[C@H]2[C@H](C)[C@H](N)C[C@H]3C(C)(C)CCC[C@]23C)c1 and report it.
+ (0 < x < 50)
